Attribution: PubChem BioAssay AID1963448

tested on: 616215-338-R-J1-PDC complex spheroid growth, % test/control; test: Anticancer human tumor 616215-338-R-J1-PDC patient-derived colon adenocarcinoma cell line growth inhibition [Asc]; details: second compound 0.1 µM; first compound 0.316 µM; active = viability on the fitted dose curve at most 10% of control; inactive = the rest
Write down the outcome that applies. Available outcomes: active, inactive

A selection of reference data follows.
{"compound": "O=C(c1ccc(F)c(F)c1Nc1ccc(I)cc1F)N1CC(O)([C@@H]2CCCCN2)C1 + CNC(C)C(=O)NC1CN(S(=O)(=O)c2cccc(S(=O)(=O)N3CCC4CCC(C(=O)NC(c5ccccc5)c5ccccc5)N4C(=O)C(NC(=O)C(C)NC)C3)c2)CCC2CCC(C(=O)NC(c3ccccc3)c3ccccc3)N2C1=O", "target": "616215-338-R-J1-PDC complex spheroid growth, % test/control", "assigned-category": "active"}
{"compound": "O=C(c1ccc(F)c(F)c1Nc1ccc(I)cc1F)N1CC(O)([C@@H]2CCCCN2)C1 + Cc1c(S(C)(=O)=O)c(-c2cc(F)cc(N3CCN(c4ccc(NS(=O)(=O)c5ccc(NC(CCN6CCC(C(=O)OCCCP(=O)(O)O)CC6)CSc6ccccc6)c(S(=O)(=O)C(F)(F)F)c5)cc4)CC3)c2)c(-c2ccc(Cl)cc2)n1C(C)C", "target": "616215-338-R-J1-PDC complex spheroid growth, % test/control", "assigned-category": "active"}
{"compound": "C=CC(=O)N1CCN(c2nc(=O)n(-c3c(C)ccnc3C(C)C)c3nc(-c4c(O)cccc4F)c(F)cc23)C(C)C1 (stereo unspecified) + CNC(C)C(=O)NC1CN(S(=O)(=O)c2cccc(S(=O)(=O)N3CCC4CCC(C(=O)NC(c5ccccc5)c5ccccc5)N4C(=O)C(NC(=O)C(C)NC)C3)c2)CCC2CCC(C(=O)NC(c3ccccc3)c3ccccc3)N2C1=O", "target": "616215-338-R-J1-PDC complex spheroid growth, % test/control", "assigned-category": "inactive"}
{"compound": "C#Cc1c(F)ccc2cc(O)cc(-c3ncc4c(N5CC6CCC(C5)N6)nc(OCC56CCCN5CC(F)C6)nc4c3F)c12 (stereo unspecified) + Cc1c(S(C)(=O)=O)c(-c2cc(F)cc(N3CCN(c4ccc(NS(=O)(=O)c5ccc(NC(CCN6CCC(C(=O)OCCCP(=O)(O)O)CC6)CSc6ccccc6)c(S(=O)(=O)C(F)(F)F)c5)cc4)CC3)c2)c(-c2ccc(Cl)cc2)n1C(C)C", "target": "616215-338-R-J1-PDC complex spheroid growth, % test/control", "assigned-category": "inactive"}

Write down the call the test reported for this compound. Item: C=C(F)C(=O)N1CCN(c2nc(OCC3CCCN3C)nc3c2CCN(c2cccc4cccc(Cl)c24)C3)CC1CC#N (stereo unspecified) + Cc1c(S(C)(=O)=O)c(-c2cc(F)cc(N3CCN(c4ccc(NS(=O)(=O)c5ccc(NC(CCN6CCC(C(=O)OCCCP(=O)(O)O)CC6)CSc6ccccc6)c(S(=O)(=O)C(F)(F)F)c5)cc4)CC3)c2)c(-c2ccc(Cl)cc2)n1C(C)C inactive

Entry CCN1CCN(Cc2ccc(Nc3ncc(F)c(-c4cc(F)c5nc(C)n(C(C)C)c5c4)n3)nc2)CC1 + Cc1c(S(C)(=O)=O)c(-c2cc(F)cc(N3CCN(c4ccc(NS(=O)(=O)c5ccc(NC(CCN6CCC(C(=O)OCCCP(=O)(O)O)CC6)CSc6ccccc6)c(S(=O)(=O)C(F)(F)F)c5)cc4)CC3)c2)c(-c2ccc(Cl)cc2)n1C(C)C : call = ? inactive

---

List of viability, T/C values.
tested on: 616215-338-R-J1-PDC complex spheroid growth, % test/control; assay: Anticancer human tumor 616215-338-R-J1-PDC cell line growth inhibition [Asc]; details: second compound 0.1 µM; first compound 0.3 µM; stronger effect = lower value;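 note: spheroids exposed to agents for seven days before readout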;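 for viability, T/C: 100% = DMSO vehicle control viability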

{"compound": "CCN1C(C(=O)NC23CCC(C(=O)O)(CC2)CC3)C(c2cccc(Cl)c2F)C2(C(=O)Nc3cc(Cl)ccc32)C12CCCCC2 (configuration not stated) + Cc1c(S(C)(=O)=O)c(-c2cc(F)cc(N3CCN(c4ccc(NS(=O)(=O)c5ccc(NC(CCN6CCC(C(=O)OCCCP(=O)(O)O)CC6)CSc6ccccc6)c(S(=O)(=O)C(F)(F)F)c5)cc4)CC3)c2)c(-c2ccc(Cl)cc2)n1C(C)C", "viability, T/C": "50.7%"}

What does the data say about its viability, T/C? Entry: NC(=O)C(=Cn1cnc(-c2cc(C(F)(F)F)cc(C(F)(F)F)c2)n1)c1cncnc1 + Cc1c(S(C)(=O)=O)c(-c2cc(F)cc(N3CCN(c4ccc(NS(=O)(=O)c5ccc(NC(CCN6CCC(C(=O)OCCCP(=O)(O)O)CC6)CSc6ccccc6)c(S(=O)(=O)C(F)(F)F)c5)cc4)CC3)c2)c(-c2ccc(Cl)cc2)n1C(C)C 71.8%

---

system: 616215-338-R-J1-PDC complex spheroid growth, % test/control; experiment: Anticancer human tumor 616215-338-R-J1-PDC cell line growth inhibition [Asc]; conditions: curve of first compound; second compound 3.16 µM;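 note: spheroids exposed to agents for seven days before readout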
pIC50: −log10 of the molar value.
pIC50 by entry:

Recorded pIC50, per entry:
{"compound": "NC(=O)C(=Cn1cnc(-c2cc(C(F)(F)F)cc(C(F)(F)F)c2)n1)c1cncnc1 + Cc1c(S(C)(=O)=O)c(-c2cc(F)cc(N3CCN(c4ccc(NS(=O)(=O)c5ccc(NC(CCN6CCC(C(=O)OCCCP(=O)(O)O)CC6)CSc6ccccc6)c(S(=O)(=O)C(F)(F)F)c5)cc4)CC3)c2)c(-c2ccc(Cl)cc2)n1C(C)C", "pIC50": "> 9.02"}
{"compound": "CCN1CCN(Cc2ccc(Nc3ncc(F)c(-c4cc(F)c5nc(C)n(C(C)C)c5c4)n3)nc2)CC1 + Cc1c(S(C)(=O)=O)c(-c2cc(F)cc(N3CCN(c4ccc(NS(=O)(=O)c5ccc(NC(CCN6CCC(C(=O)OCCCP(=O)(O)O)CC6)CSc6ccccc6)c(S(=O)(=O)C(F)(F)F)c5)cc4)CC3)c2)c(-c2ccc(Cl)cc2)n1C(C)C", "pIC50": "> 8.50"}

Would you kindly look at the next entry?
Please report the recorded pIC50 for COc1c(OCCCN2CCOCC2)ccc2c3n(c(=NC(=O)c4cnc(N)nc4)nc12)CCN3 + Cc1c(S(C)(=O)=O)c(-c2cc(F)cc(N3CCN(c4ccc(NS(=O)(=O)c5ccc(NC(CCN6CCC(C(=O)OCCCP(=O)(O)O)CC6)CSc6ccccc6)c(S(=O)(=O)C(F)(F)F)c5)cc4)CC3)c2)c(-c2ccc(Cl)cc2)n1C(C)C . 7.44

---

System: 616215-338-R-J1-PDC complex spheroid growth, % test/control
Assay: Anticancer human tumor 616215-338-R-J1-PDC cell line growth inhibition [Asc];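 note: spheroids exposed to agents for seven days before readout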
Details: curve of first compound; second compound 3.16 µM
Excerpt: Multicellular complex tumor spheroid response to apoptosis pathway targeting inhibitors Alrizomadlin, Pelcitoclax, and Dasminapant in combination with a variety of drugs and investigational agents in selected tumor cell lines […] Compounds. […] If the clinical Cmax for an agent had not been determined, the highest concentration tested was 10 microM. […]
pIC50: −log10 of the molar value.
observable: pIC50

{"compound": "Cn1ncnc1[C@H]1c2n[nH]c(=O)c3cc(F)cc(c23)N[C@@H]1c1ccc(F)cc1 + Cc1c(S(C)(=O)=O)c(-c2cc(F)cc(N3CCN(c4ccc(NS(=O)(=O)c5ccc(NC(CCN6CCC(C(=O)OCCCP(=O)(O)O)CC6)CSc6ccccc6)c(S(=O)(=O)C(F)(F)F)c5)cc4)CC3)c2)c(-c2ccc(Cl)cc2)n1C(C)C", "pIC50": "> 9.50"}

Now look at this entry.
Query for 616215-338-R-J1-PDC complex spheroid growth, % test/control: what pIC50 does the record show for CCN1C(C(=O)NC23CCC(C(=O)O)(CC2)CC3)C(c2cccc(Cl)c2F)C2(C(=O)Nc3cc(Cl)ccc32)C12CCCCC2 (configuration not stated) + Cc1c(S(C)(=O)=O)c(-c2cc(F)cc(N3CCN(c4ccc(NS(=O)(=O)c5ccc(NC(CCN6CCC(C(=O)OCCCP(=O)(O)O)CC6)CSc6ccccc6)c(S(=O)(=O)C(F)(F)F)c5)cc4)CC3)c2)c(-c2ccc(Cl)cc2)n1C(C)C ? > 8.02

---

system: 616215-338-R-J1-PDC complex spheroid growth, % test/control; experiment: Anticancer human tumor 616215-338-R-J1-PDC cell line growth inhibition [Asc]; details: second compound 0.1 µM; first compound 0.0949 µM; stronger effect = lower value;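 note: spheroids exposed to agents for seven days before readout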;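 for viability, T/C: 100% = DMSO vehicle control viability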
observable: viability, T/C (%)
Could you give me the number in %? Just the number is fine.

{"molecule": "NC(=O)C(=Cn1cnc(-c2cc(C(F)(F)F)cc(C(F)(F)F)c2)n1)c1cncnc1 + Cc1c(S(C)(=O)=O)c(-c2cc(F)cc(N3CCN(c4ccc(NS(=O)(=O)c5ccc(NC(CCN6CCC(C(=O)OCCCP(=O)(O)O)CC6)CSc6ccccc6)c(S(=O)(=O)C(F)(F)F)c5)cc4)CC3)c2)c(-c2ccc(Cl)cc2)n1C(C)C", "observed": 81}

Given Cc1nc(N2CCC3(CC2)COC(C)C3N)c(CO)nc1Sc1ccnc(N)c1Cl (centres undefined) + Cc1c(S(C)(=O)=O)c(-c2cc(F)cc(N3CCN(c4ccc(NS(=O)(=O)c5ccc(NC(CCN6CCC(C(=O)OCCCP(=O)(O)O)CC6)CSc6ccccc6)c(S(=O)(=O)C(F)(F)F)c5)cc4)CC3)c2)c(-c2ccc(Cl)cc2)n1C(C)C , state its recorded viability, T/C. 100

// query viability, T/C value for entry CCN1C(C(=O)NC23CCC(C(=O)O)(CC2)CC3)C(c2cccc(Cl)c2F)C2(C(=O)Nc3cc(Cl)ccc32)C12CCCCC2 (centres undefined) + Cc1c(S(C)(=O)=O)c(-c2cc(F)cc(N3CCN(c4ccc(NS(=O)(=O)c5ccc(NC(CCN6CCC(C(=O)OCCCP(=O)(O)O)CC6)CSc6ccccc6)c(S(=O)(=O)C(F)(F)F)c5)cc4)CC3)c2)c(-c2ccc(Cl)cc2)n1C(C)C 77.3

Recorded viability, T/C of CCN1C(C(=O)NC23CCC(C(=O)O)(CC2)CC3)C(c2cccc(Cl)c2F)C2(C(=O)Nc3cc(Cl)ccc32)C12CCCCC2 (centres undefined) + CNC(C)C(=O)NC1CN(S(=O)(=O)c2cccc(S(=O)(=O)N3CCC4CCC(C(=O)NC(c5ccccc5)c5ccccc5)N4C(=O)C(NC(=O)C(C)NC)C3)c2)CCC2CCC(C(=O)NC(c3ccccc3)c3ccccc3)N2C1=O , please. 51.1
